The reported numbers originate from patent US20220144812A1.

Target: EP300 (P300(1048-1664)) (Homo sapiens)
Construct: P300(1048-1664)
Sequence (Q09472 1048-1664): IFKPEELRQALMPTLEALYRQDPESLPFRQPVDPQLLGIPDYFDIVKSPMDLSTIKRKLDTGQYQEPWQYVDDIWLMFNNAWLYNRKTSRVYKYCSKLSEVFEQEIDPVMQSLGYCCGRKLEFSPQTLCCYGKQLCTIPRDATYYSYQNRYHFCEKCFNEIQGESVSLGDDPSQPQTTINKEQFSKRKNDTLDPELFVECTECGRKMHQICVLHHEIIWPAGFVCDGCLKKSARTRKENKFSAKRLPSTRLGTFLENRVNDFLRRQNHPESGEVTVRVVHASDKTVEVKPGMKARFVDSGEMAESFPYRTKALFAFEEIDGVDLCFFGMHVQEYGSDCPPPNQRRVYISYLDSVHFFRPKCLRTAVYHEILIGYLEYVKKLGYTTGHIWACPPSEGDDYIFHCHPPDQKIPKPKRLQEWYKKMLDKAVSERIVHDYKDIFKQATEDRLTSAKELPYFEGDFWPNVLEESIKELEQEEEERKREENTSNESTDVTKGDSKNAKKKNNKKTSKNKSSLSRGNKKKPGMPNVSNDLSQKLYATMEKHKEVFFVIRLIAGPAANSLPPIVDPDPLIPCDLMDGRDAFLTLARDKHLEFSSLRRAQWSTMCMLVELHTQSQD
Assay: Biochemical assay for EP300, SAMDI
Details: EP300, SAMDI; read-out: EP300 Biochemistry IC50
Consider the cut-off 100 nM. If the recorded IC50 is strictly smaller, the label is YES; if not, the label is NO.

Given the entry CCn1ncc(CN(C)C(=O)c2nc(-c3cnc4c[nH]nc4c3)nc3ccc(Cl)cc23)c1C [Compound 581] , would its reported IC50 be below 100 nM?
NO

Given the entry CCn1ncc(CN(C)C(=O)c2cc(-c3ccc(OCC(O)CNC)c(C)n3)nc3ccc(Cl)cc23)c1C (stereo not drawn) [Compound 435] , would its reported IC50 be below 100 nM?
YES

Given the entry CCn1ncc(CN(C)C(=O)c2cc(-c3cn(C)c(OC)n3)nc3cc(Cl)ccc23)c1C [Compound 185] , would its reported IC50 be below 100 nM?
NO

Given the entry CCn1ncc(CN(C)C(=O)c2nc(-c3cc4c(N)n[nH]c4cc3C)nc3ccc(Cl)cc23)c1C [Compound 418] , would its reported IC50 be below 100 nM?
YES

Given the entry CCn1ncc(CN(C(=O)c2cc(-c3ccc(NCCNC)c(C)n3)nc3ccc(Cl)cc23)C(C)C)c1C [Compound 465] , would its reported IC50 be below 100 nM?
NO

Given the entry CCn1ncc(CN(C)C(=O)c2cc(-c3ccc(NCCNS(C)(=O)=O)c(C)n3)nc3ccc(Cl)cc23)c1C [Compound 529] , would its reported IC50 be below 100 nM?
YES

Given the entry CCn1ncc(CN(C)C(=O)c2nc(-c3cc(OC)c4cn[nH]c4c3)nc3ccc(Cl)cc23)c1C [Compound 390] , would its reported IC50 be below 100 nM?
NO

Given the entry CCn1ncc(CN(C)C(=O)c2nc(-c3cc(-c4ncc[nH]4)n(C)n3)nc3ccc(Cl)cc23)c1C [Compound 495] , would its reported IC50 be below 100 nM?
YES

Given the entry CCn1ncc(CN(C)C(=O)c2nc(-c3ccc(OCCN4CCCC4)cc3Cl)nc3ccc(Cl)cc23)c1C [Compound 40] , would its reported IC50 be below 100 nM?
NO

Given the entry CCn1ncc(CN(C)C(=O)c2cc(-c3cc4n[nH]cc4cn3)nc3ccc(COC)cc23)c1C [Compound 506] , would its reported IC50 be below 100 nM?
YES

Given the entry CCn1ncc(CN(C)C(=O)c2nc(-c3ccc(OCCCNC)c(OC)c3)nc3ccc(Cl)cc23)c1C [Compound 84] , would its reported IC50 be below 100 nM?
NO

Given the entry CNc1[nH]nc2cc(C)c(-c3nc(C(=O)N(C)Cc4cnc(C5CC5)n4C)c4cc(COC)ccc4n3)cc12 [Compound 617] , would its reported IC50 be below 100 nM?
YES

Given the entry CCn1ncc(CN(C)C(=O)c2nc(-c3cc(Cl)cc(NC(=O)NC)c3)nc3ccc(Cl)cc23)c1C [Compound 34] , would its reported IC50 be below 100 nM?
YES

Given the entry CCn1ncc(CN(C)C(=O)c2nc(-c3ccc(-c4ccn[nH]4)cc3)nc3ccc(Cl)cc23)c1C [Compound 171] , would its reported IC50 be below 100 nM?
NO

Given the entry CCn1ncc(CN(C)C(=O)c2cc(-c3ccc(NC)c(C)n3)nc3ccc(Cl)cc23)c1C [Compound 404] , would its reported IC50 be below 100 nM?
YES

Given the entry CCn1ncc(CN(C)C(=O)c2nc(N3CCc4[nH]c(C)nc4C3)nc3ccc(Cl)cc23)c1C [Compound 159] , would its reported IC50 be below 100 nM?
NO

Given the entry CCn1ncc(CN(C)C(=O)c2nc(-c3ccc(OCCOC)cc3Cl)nc3ccc(Cl)cc23)c1C [Compound 96] , would its reported IC50 be below 100 nM?
NO

Given the entry CCn1ncc(CN(C)C(=O)c2cc(-c3cnc(N)c(C)n3)nc3ccc(Cl)cc23)c1C [Compound 474] , would its reported IC50 be below 100 nM?
NO

Given the entry CCc1ncc(CN(C)C(=O)c2nc(-c3cccc(Cl)c3)nc3ccc(Cl)cc23)n1C [Compound 37] , would its reported IC50 be below 100 nM?
YES

Given the entry CCn1ncc(CN(C)C(=O)c2nc(-c3cc(C)cc(NC4CCOCC4)c3)nc3ccc(Cl)cc23)c1C [Compound 78] , would its reported IC50 be below 100 nM?
YES

Given the entry CCc1ncc(CN(C)C(=O)c2cc(-c3ccc(NCC(O)CNC)c(C)n3)nc3ccc(Cl)cc23)n1C (stereo not drawn) [Compound 571] , would its reported IC50 be below 100 nM?
YES

Given the entry CCn1ncc(CN(C)C(=O)c2nc(-c3ccc(OCCOC)c(Cl)c3)nc3ccc(Cl)cc23)c1C [Compound 108] , would its reported IC50 be below 100 nM?
NO

Given the entry CCn1ncc(CN(C)C(=O)c2cc(-c3ccc(NCCN(C)C)c(C(F)(F)F)n3)nc3ccc(Cl)cc23)c1C [Compound 619] , would its reported IC50 be below 100 nM?
YES

Given the entry CCn1ncc(CN(C)C(=O)c2cc(-c3cnc(OCCNC)cn3)nc3ccc(Cl)cc23)c1C [Compound 413] , would its reported IC50 be below 100 nM?
NO

Given the entry CCn1ncc(CN(C)C(=O)c2nc(-c3cc4[nH]cnc4cc3C)nc3ccc(Cl)cc23)c1C [Compound 17] , would its reported IC50 be below 100 nM?
NO

Given the entry CCn1ncc(CN(C)C(=O)c2nc(-c3cnc4n[nH]c(N)c4c3)nc3ccc(Cl)cc23)c1C [Compound 621] , would its reported IC50 be below 100 nM?
NO

Given the entry CCn1ncc(CN(C)C(=O)c2nc(-c3ccc(OCCO)cn3)nc3ccc(Cl)cc23)c1C [Compound 173] , would its reported IC50 be below 100 nM?
NO

Given the entry CCn1ncc(CN(C)C(=O)c2nc(-c3cc(N)c4cn[nH]c4c3)nc3ccc(COC)cc23)c1C [Compound 499] , would its reported IC50 be below 100 nM?
YES

Given the entry CCn1ncc(CN(C)C(=O)c2cc(-c3ccc(NCCO)c(C)n3)nc3ccc(Cl)cc23)c1C [Compound 521] , would its reported IC50 be below 100 nM?
YES

Given the entry CCn1ncc(CN(C)C(=O)c2nc(-c3cc(CN(C)Cc4ccc(OC)cc4)nn3C)nc3ccc(Cl)cc23)c1C [Compound 176] , would its reported IC50 be below 100 nM?
NO

* * *

Please provide measured pIC50 for the entries that follow.
System: H3K18Ac in HB-CLS-2 cells
Assay: H3K18AC in-cell western (ICW) assay
Type: cell-based
Conditions: H3K18Ac in-cell western; read-out: CREBBP ICW IC50
From the text: The following example describes methods and materials relating to an H3K18AC in-cell western assay. IC50 values (micromolar (μM)) are summarized in Table 1, Table 2, and Table 3 under the column labeled: “CREBBP ICW IC50 (micromolar).” […] METHOD: Cell Treatment, ICW for detection of H3K18Ac and DNA content. […] Plates were allowed to dry at room temperature then imaged on the Licor Odyssey CLx machine which measured integrated intensity at 700 nm and 800 nm wavelengths. […]
Please express pIC50 as -log10 of the molar concentration.

pIC50 lookup needed for `CCn1ncc(CN(C)C(=O)c2nc(-c3cccc(Cl)c3)nc3ccccc23)c1C` , thanks.
5.33

pIC50 lookup needed for `CCn1ncc(CN(C)C(=O)c2cc(-c3ccc(NCCS(C)(=O)=O)c(C)n3)nc3ccc(Cl)cc23)c1C` , thanks.
6.94

pIC50 lookup needed for `CCn1ncc(CN(C)C(=O)c2nc(-c3ccc(OCCCNC)c(C(C)(C)C)c3)nc3ccc(Cl)cc23)c1C` , thanks.
4.79

pIC50 lookup needed for `CCn1ncc(CN(C)C(=O)c2cc(-c3ccc(N4CC(N(C)C)C4)c(C)n3)nc3ccc(Cl)cc23)c1C` , thanks.
5.79

pIC50 lookup needed for CCn1ncc(CN(C)C(=O)c2nc(-c3ccc4c[nH]nc4c3Cl)nc3ccc(COC)cc23)c1C [Compound 52] , thanks.
6.28

pIC50 lookup needed for `CCn1ncc(CN(C)C(=O)c2nc(-c3ccc4nc(C)n(C(=O)OC(C)(C)C)c4c3)nc3ccc(Cl)cc23)c1C` , thanks.
5.66

pIC50 lookup needed for `CCn1ncc(CN(C)C(=O)c2cc(-c3ccc(NCC(F)(F)CNC)c(C)n3)nc3ccc(Cl)cc23)c1C` , thanks.
6.77
